# study.system: GRIP2_6, Q9C0E4
# Sequence (Q9C0E4 648-740): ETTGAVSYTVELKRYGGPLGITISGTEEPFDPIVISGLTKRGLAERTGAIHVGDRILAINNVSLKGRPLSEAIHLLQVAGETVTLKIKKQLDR
# method.description: holdup assay
# Parameters: key: below the threshold = too weak to quantify, mostly under pKd 3.1 to 4
# condition.context: plain residues with an end cap or a label only (N-terminal biotin on a linker: ttds)
reported.property: pKd

EMDRRPATVV [PLCB4, Q15147] ... 3.67
EVVHTPETSV [SLC16A3, O15427] ... below the threshold
VDFPPKESSL [ACVR2A, P27037] ... below the threshold
KKYVDAETSL [SLC4A7, Q9Y6M7] ... below the threshold
PVRVCEETSL [OTULIN, Q96BN8] ... 3.53
FHPLGADSQV [SLC2A1, P11166] ... below the threshold

Ask: Supply recorded pKd for SGSRPSATVV [HPV73-E6, Q82005] here.
Reply: below the threshold

Ask: Supply recorded pKd for RLPKIKETTV [FRMPD4, Q14CM0] here.
Reply: 3.39

Reference source: paper PMC9482650
